Test system: E34 (patient-derived glioblastoma stem cells of proneural subtype);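 also: nuclei counted by high-content imaging of Hoechst-stained cells in laminin-coated 384-well plates, relative to 0.1% DMSO vehicle wells, with staurosporine as cell-death control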
Assay: surviving fraction (nuclei count normalised to DMSO); higher = more cells surviving (less toxic)
Conditions: 3000 nM; exposure time: 72 h
MEASURED_METRIC: surviving fraction

// below: answered compounds
{"COMPOUND": "CC(=O)[C@]1(O)Cc2c(O)c3c(c(O)c2[C@@H](O[C@H]2C[C@H](N)[C@H](O)[C@H](C)O2)C1)C(=O)c1ccccc1C3=O", "MEASURED_METRIC": "surviving fraction", "VALUE_MEASURED": 0.15}
{"COMPOUND": "O=C1CC[C@@H](C(=O)N2CSC[C@H]2C(=O)O)N1", "MEASURED_METRIC": "surviving fraction", "VALUE_MEASURED": 1.04}
{"COMPOUND": "CN1C(=O)[C@@]23C[C@]4([C@]56C[C@@]78SS[C@@](CO)(C(=O)N7[C@H]5Nc5ccccc56)N(C)C8=O)c5ccccc5N[C@@H]4N2C(=O)[C@]1(CO)SS3", "MEASURED_METRIC": "surviving fraction", "VALUE_MEASURED": 0.0159}

Shifting focus to the compound that follows.
Reported surviving fraction for "Cc1cc(CN)cc(C)c1NC(=O)c1ccc(-c2cc(Cl)ccc2Cl)o1" : what is it?
0.829

###

Test system: E57 (patient-derived glioblastoma stem cells of mesenchymal subtype)
Assay: phenotypic distance (Euclidean, principal components) from DMSO controls (arbitrary units); higher = stronger morphological change
Conditions: 37 nM; exposure time: 72 h
Structures can show the parent of a compound that is named as a salt.
MEASURED_METRIC: phenotypic distance
Lab note: jot down the number only; don't add units.

Below: 5 molecules and their reported phenotypic distance.
{"MOLECULE": "OC(c1cc(C(F)(F)F)nc2c(C(F)(F)F)cccc12)C1CCCCN1 (stereo unspecified) [Mefloquine hydrochloride]", "ASSAYED_TARGET": "E57", "VALUE_MEASURED": 0.474}
{"MOLECULE": "c1ccc2c(c1)[I+]c1ccccc1-2 [Diphenyleneiodonium chloride]", "ASSAYED_TARGET": "E57", "VALUE_MEASURED": 1.73}
{"MOLECULE": "CC(C)N1CCN(c2ccc(OCC3COC(Cn4cncn4)(c4ccc(Cl)cc4Cl)O3)cc2)CC1 (stereo unspecified)", "ASSAYED_TARGET": "E57", "VALUE_MEASURED": 0.61}
{"MOLECULE": "CCCSc1ccc2[nH]c(NC(=O)OC)nc2c1", "ASSAYED_TARGET": "E57", "VALUE_MEASURED": 0.859}
{"MOLECULE": "COc1cc2ncnc(Nc3cccc(Br)c3)c2cc1OC", "ASSAYED_TARGET": "E57", "VALUE_MEASURED": 1.4}

What value of measured phenotypic distance is listed for "CN1CCC(NC(=O)c2cc(-c3c(O)cc(O)cc3Oc3ccc([N+](=O)[O-])cc3)on2)CC1" ?
0.335

###

System: E13 (patient-derived glioblastoma stem cells of classical subtype)
Assay: phenotypic distance (Euclidean, principal components) from DMSO controls (arbitrary units); higher = stronger morphological change
Conditions: 1000 nM; exposure time: 72 h
Structures can show the parent of a compound that is named as a salt.
Reported phenotypic distance maps to class as: b0 = under 0.7, b1 = from 0.7 up to 4, b2 = 4 and over

Below are worked cases with known answers.
{"MOLECULE": "CC[C@]1(O)C[C@@H]2CN(CCc3c([nH]c4ccccc34)[C@@](C(=O)OC)(c3cc4c(cc3OC)N(C)[C@H]3[C@@](O)(C(=O)OC)[C@H](OC(C)=O)[C@]5(CC)C=CCN6CC[C@]43[C@@H]65)C2)C1 [Vinblastine sulfate]", "ASSAYED_TARGET": "E13", "GROUP_LABEL": "b2"}
{"MOLECULE": "CC(=O)O[C@H]1C[C@H](O[C@H]2[C@@H](O)C[C@H](O[C@H]3[C@@H](O)C[C@H](O[C@H]4CC[C@@]5(C)[C@H](CC[C@@H]6[C@@H]5C[C@@H](O)[C@]5(C)[C@@H](C7=CC(=O)OC7)CC[C@]65O)C4)O[C@@H]3C)O[C@@H]2C)O[C@H](C)[C@H]1O[C@@H]1O[C@H](CO)[C@@H](O)[C@H](O)[C@H]1O [Lanatoside C]", "ASSAYED_TARGET": "E13", "GROUP_LABEL": "b2"}
{"MOLECULE": "Cc1c2ccncc2c(C)c2c1[nH]c1ccccc12", "ASSAYED_TARGET": "E13", "GROUP_LABEL": "b1"}

Given Cc1cc(/C=C/c2ccc3cc(N(C)C)ccc3[n+]2C)c(C)n1-c1ccccc1 [Pyrvinium pamoate] , name the class its phenotypic distance places it in.
b2

Determine which band this molecule sits in: "COc1cc(NS(C)(=O)=O)ccc1Nc1c2ccccc2nc2ccccc12"
b2

Which class is correct for the following molecule? CNCCCC12CCC(c3ccccc31)c1ccccc12 [Maprotiline hydrochloride]
b0

Class for COc1cc2c[n+](C)c3c4cc5c(cc4ccc3c2cc1OC)OCO5 [Nitidine chloride] ?
b1

For this molecule, which bin applies? CCCCCCC[N+](CC)(CC)CCCCc1ccc(Cl)cc1 [Clofilium tosylate]
b0

GET /class?item= "COc1cc2c(c(OC)c1OC)-c1ccc(OC)c(=O)cc1[C@@H](NC(C)=O)CC2"
b2

Sort "CN[C@@H](C)C(=O)N[C@H](C(=O)N1CCC[C@H]1C(=O)N[C@H]1c2ccccc2C[C@H]1OCC#CC#CCO[C@@H]1Cc2ccccc2[C@@H]1NC(=O)[C@@H]1CCCN1C(=O)[C@@H](NC(=O)[C@H](C)NC)C1CCCCC1)C1CCCCC1" into one of the categories.
b1

Please let me know in which category the item "CN(c1nccc(=O)[nH]1)C1CCN(c2nc3ccccc3n2Cc2ccc(F)cc2)CC1" belongs.
b0

Tag the class for CCCCCCCCCCCCCCCC[N+](C)(C)CCN(Cc1ccc(OC)cc1)c1ncccn1 [Thonzonium bromide]
b1

Tag the class for "COc1ccc(C(=O)CC(=O)c2ccc(C(C)(C)C)cc2)cc1"
b0
